B1: Homeobox protein cut-like 1, residues 548 to 629; numbered along this chain, P39880 (parent)
chain: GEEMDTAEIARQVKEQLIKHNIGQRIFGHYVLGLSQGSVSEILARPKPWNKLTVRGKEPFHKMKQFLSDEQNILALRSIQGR

Variants of: B1
Assay: abundance fitness (aPCA) (normalised: wild type 0, dead -1); higher = more abundant; growth selection in yeast, the domain comes from the species named
Settings: Homo sapiens
Use criterion met when the recorded abundance fitness is no lower than -0.4; use criterion not met when it is lower.

INSERT INTO measurements (sequence_entry, assigned_class) VALUES
  ('GEEMDTAEIARQVKEQLIKHNIGQHIFGHYVLGLSQGSVSEILARPKPWNKLTVRGKEPFHKMKQFLSDEQNILALRSIQGR [R25H]', 'criterion met'),
  ('GEEMDTAEIARQVKEQLIKHNIGQRIFGHYVLGLSQGSVSEILARPKPWNKLKVRGKEPFHKMKQFLSDEQNILALRSIQGR [T53K]', 'criterion not met'),
  ('GEEMDTAEIARQVKEQLIKHNIGQRIFGHYVLGLSQGSVSEILARPKPWNKLTVRGKEPFHCMKQFLSDEQNILALRSIQGR [K62C]', 'criterion not met'),
  ('SEEMDTAEIARQVKEQLIKHNIGQRIFGHYVLGLSQGSVSEILARPKPWNKLTVRGKEPFHKMKQFLSDEQNILALRSIQGR [G1S]', 'criterion met'),
  ('GEEMDTAEIARQVKEQLIKHNIGQRIFGHYHLGLSQGSVSEILARPKPWNKLTVRGKEPFHKMKQFLSDEQNILALRSIQGR [V31H]', 'criterion not met'),
  ('GEEMDTAEIARQVKEQLIKHNIGQRIFGHYVLGFSQGSVSEILARPKPWNKLTVRGKEPFHKMKQFLSDEQNILALRSIQGR [L34F]', 'criterion met'),
  ('GEEMDTAEIARQVKEQLIKHNIGQRIFGHYVLGLSQGSVSEILARPKPWNKLTVRGKEPFHKMKQFRSDEQNILALRSIQGR [L67R]', 'criterion not met'),
  ('GEEMDTAEIARQVKEQLIKHNIGQRIFGHPVLGLSQGSVSEILARPKPWNKLTVRGKEPFHKMKQFLSDEQNILALRSIQGR [Y30P]', 'criterion not met');

**Query** Hi team, for GEEMDTAEIARQVKEQLIKHNIGQRIFGHYVLGLSQGSVSEILARPKPWNKLTVRGKEPFHKMKEFLSDEQNILALRSIQGR [Q65E] , is the recorded abundance fitness at or above -0.4?
**Result** criterion met

**Query** Hi team, for GEEMDTAEIARQVKEQLIKHNIGQRIFGHYVLGLSQGSVSEILARPKPWNKLTVRGKEPFHKMKQFLADEQNILALRSIQGR [S68A] , is the recorded abundance fitness at or above -0.4?
**Result** criterion met

**Query** Hi team, for GEEMDTAEIARQVKEQLIKHNIGQRIFGHYVLGLSQGSVSLILARPKPWNKLTVRGKEPFHKMKQFLSDEQNILALRSIQGR [E41L] , is the recorded abundance fitness at or above -0.4?
**Result** criterion met

**Query** Hi team, for GEEMDTAEIARQVKGQLIKHNIGQRIFGHYVLGLSQGSVSEILARPKPWNKLTVRGKEPFHKMKQFLSDEQNILALRSIQGR [E15G] , is the recorded abundance fitness at or above -0.4?
**Result** criterion met

**Query** Hi team, for GEEMDTAEIARQVKEQLIKHNIGQRIFGHYVLGLSQGSVSEILARPKPWNKETVRGKEPFHKMKQFLSDEQNILALRSIQGR [L52E] , is the recorded abundance fitness at or above -0.4?
**Result** criterion not met

**Query** Hi team, for GEEMPTAEIARQVKEQLIKHNIGQRIFGHYVLGLSQGSVSEILARPKPWNKLTVRGKEPFHKMKQFLSDEQNILALRSIQGR [D5P] , is the recorded abundance fitness at or above -0.4?
**Result** criterion met

**Query** Hi team, for GEEMDTAEIVRQVKEQLIKHNIGQRIFGHYVLGLSQGSVSEILARPKPWNKLTVRGKEPFHKMKQFLSDEQNILALRSIQGR [A10V] , is the recorded abundance fitness at or above -0.4?
**Result** criterion met

meta.source: the Human Domainome abundance scans (Beltran et al. 2025)
